- Test target: T1, FLAG-Mm_Fpr1 C-terminally fused to Renilla Luciferase 8 (mouse, UniProt P33766 1-364)
- T1 sequence (looked up): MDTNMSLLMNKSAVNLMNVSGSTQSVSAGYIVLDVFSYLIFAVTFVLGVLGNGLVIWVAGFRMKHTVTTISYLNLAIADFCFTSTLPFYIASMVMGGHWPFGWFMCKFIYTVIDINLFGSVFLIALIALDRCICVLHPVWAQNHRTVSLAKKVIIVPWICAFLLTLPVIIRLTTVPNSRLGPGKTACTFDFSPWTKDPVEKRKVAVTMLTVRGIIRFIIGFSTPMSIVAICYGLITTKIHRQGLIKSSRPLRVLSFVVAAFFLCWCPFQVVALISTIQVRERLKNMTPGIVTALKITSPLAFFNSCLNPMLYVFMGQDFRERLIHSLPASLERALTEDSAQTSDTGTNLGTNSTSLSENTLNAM
- Test details: cell-based or functional assay
Where no end group is shown, it is not given here. [ ]: non-standard residue; d: D form. The star is where a group is joined. For = O=C*
Measured quantity: BRET of receptor-RLuc8 with Arrestin 3-YFP: Emax (% of 1 μM WKYMVm)
The reply must contain the numeric value and, after it, the unit.

Field: example entries. Status: answers known.
WKYMVM (synthetic hexapeptide, all L residues; also called L-enantiomer of WKYMVm; source: bought: Tocris) ... 83.1%
For-MLFK [fMet-Leu-Phe-Lys (fMLFK)] ... 95.2%
WKYMV[dM] (the last residue is the D form; the bought peptide is probably also an amide (surmise); source: bought: Tocris) [WKYMVm] ... 112%

Please look at the following binder next.
Entry For-Met-Leu-Phe [fMet-Leu-Phe (fMLF)] , BRET of receptor-RLuc8 with Arrestin 3-YFP: Emax (% of 1 μM WKYMVm) reported as 83.4%
